Where do these numbers come from? They come from the Human Domainome abundance scans (Beltran et al. 2025).

B1: Nuclear receptor subfamily 1 group D member 2, residues 103 to 171; numbered along this chain, Q14995 (parent)
chain: CKVCGDVASGFHYGVHACEGCKGFFRRSIQQNIQYKKCLKNENCSIMRMNRNRCQQCRFKKCLSVGMSR

# Variants of: B1
# TEST METHOD NOTES: abundance fitness (aPCA) (normalised: wild type 0, dead -1); higher = more abundant; growth selection in yeast, the domain comes from the species named
# CONDITION DESCRIPTION: Homo sapiens
# reported abundance fitness; entries follow
MEASUREMENT LABEL: abundance fitness

[[record]]
input_sequence = "CKVCGDVASGFHYGVHACEGCKGFFRRSIQQTIQYKKCLKNENCSIMRMNRNRCQQCRFKKCLSVGMSR"
reading = -0.414

[[record]]
input_sequence = "CKVCGDVASGFHYGVHACEGCKGFFRRSIQQNIQYKKQLKNENCSIMRMNRNRCQQCRFKKCLSVGMSR"
reading = -0.803

[[record]]
input_sequence = "CKVCGDVASGFHYGVHACEGCKGFFRRSIQQNIQYKKCLKNENCSIMRMNRNRCQQCMFKKCLSVGMSR"
reading = 0.036

[[record]]
input_sequence = "CKVCGDVASGFHYGVHACEGCKGFFRRSIQQNIQYKKCLTNENCSIMRMNRNRCQQCRFKKCLSVGMSR"
reading = 0.1

[[record]]
input_sequence = "CKVCGDVASGFHYGVHACEGCKGFFRRSIQQNIQYKKCLKNENCSIMRMNRNRCQQCRYKKCLSVGMSR"
reading = -0.28

[[record]]
input_sequence = "CKVCGDVASGFHYGVHACEGCKGFFRRSIQQNIQYKKCLKNENCSIMRMNRNRCQQCRFKKCLSVGMSV"
reading = 0.327

[[record]]
input_sequence = "CKVCGDVASGFHYGVHACEGCKGFFRRSIQQNIQYKKCLKNENCSIMRMNRNRCQQCRFKKCASVGMSR"
reading = -0.071

[[record]]
input_sequence = "CKVCGDVASGFHYGVHACEGCKGFFRRSIQQNIQYKKCLKNCNCSIMRMNRNRCQQCRFKKCLSVGMSR"
reading = -0.592

[[record]]
input_sequence = "CKVCGDVASGFHYGVHACEGCKGFFRRSIQQNIQYKKCLKNENCSIMEMNRNRCQQCRFKKCLSVGMSR"
reading = 0.125

[[record]]
input_sequence = "CKVCGDVASGFHYGVHACEGCKGFFRRSIQQNCQYKKCLKNENCSIMRMNRNRCQQCRFKKCLSVGMSR"
reading = -0.591

[[record]]
input_sequence = "CKVCGDVASGFHYGVHACEGCKGFFRRSIQFNIQYKKCLKNENCSIMRMNRNRCQQCRFKKCLSVGMSR"
reading = 0.04

[[record]]
input_sequence = "CKVCGDVASGFHYGVHACEGCKGFFRRSIQQNIQYGKCLKNENCSIMRMNRNRCQQCRFKKCLSVGMSR"
reading = 0.092

[[record]]
input_sequence = "CKVCGDVASGFHYGVHACEGCKGFFRRSIQQNIQYKKCLKNENCSIMRMNRNRGQQCRFKKCLSVGMSR"
reading = -0.847

[[record]]
input_sequence = "CKVCGDVASGFHYGVHACEGCKGFFRRSIQQNIQYKKCLKNENCSIMRMNRNRCQQCRFKQCLSVGMSR"
reading = -0.647

[[record]]
input_sequence = "CKVCGDVASGFHYGVHACEGCKGFFRRSIQQNIQYKKCLKNENCSIMRMNRNRCQQCRFKKCLPVGMSR"
reading = -0.857

[[record]]
input_sequence = "CKVCGDVASGFHYGVHACEGCKGFFRRSIQQNIQYKKCLKNYNCSIMRMNRNRCQQCRFKKCLSVGMSR"
reading = -0.674

[[record]]
input_sequence = "CKVCGDVASGFHYGVHACEGCKGFFRRSIQQNIQYKKCLKNENCSIMRMNRNRCQQCRFKKCLSVGASR"
reading = -0.574

[[record]]
input_sequence = "CKVCGDVASGFHYGVHACEGCKGFFRRSIQQNIQYKKCLKNENCSIMRMNRNRCQQCRFKKCLAVGMSR"
reading = -0.048

[[record]]
input_sequence = "CKVCGDVASGFHYGVHACEGCKGFFRRSIQLNIQYKKCLKNENCSIMRMNRNRCQQCRFKKCLSVGMSR"
reading = -0.169

[[record]]
input_sequence = "CKVCGDVASGFHYGVHACEGCKGFFRRSIQQNIQYKKCAKNENCSIMRMNRNRCQQCRFKKCLSVGMSR"
reading = 0.084

[[record]]
input_sequence = "CKVCGDVASGFHYGVHACEGCKGFFRRSIQQNIQYKKCLKNENCSIMRMNRNRCQQCRFKVCLSVGMSR"
reading = -0.886

[[record]]
input_sequence = "CKVCGDVASGFHYGVHACEGCKGFFRRSIQQNIQYKKCLKNENCSIMRMNRNRCQQCRFKKCLSVLMSR"
reading = -0.459

[[record]]
input_sequence = "CKVCGDVASGFHYGVHACEGCKGFFRRSIQQNIQYKKCLKNENCSIMRMNRNRCQVCRFKKCLSVGMSR"
reading = -0.134

[[record]]
input_sequence = "CKVCGDVASGFHYGVHACEGCKGFFRRSIQQNIQYKKCLKDENCSIMRMNRNRCQQCRFKKCLSVGMSR"
reading = -0.225

[[record]]
input_sequence = "CKVCGDVASGFHYGVHACEGCKGFFRRSIQQNIQYKKCLKNENCSIMRMNRNRCQHCRFKKCLSVGMSR"
reading = -0.09

